Taken from ChEMBL document CHEMBL1151805.

biological target: Phospholipase A2 (Homo sapiens, UniProt P04054); experiment: Binding affinity to human pancreatic recombinant 1B PLA2 expressed in Escherichia coli by resonance energy transfer assay in presence of trimethyl-ammonium-diphenylhexatriene
Sequence (P04054 whole entry): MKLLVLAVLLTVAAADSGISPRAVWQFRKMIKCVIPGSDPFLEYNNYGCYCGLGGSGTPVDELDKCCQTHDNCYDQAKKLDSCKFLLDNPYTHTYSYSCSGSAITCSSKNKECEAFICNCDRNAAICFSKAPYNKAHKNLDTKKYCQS
Listing of recorded Kd by entry.
measured-parameter: Kd (µM)

> print(dat)
                                  structure  readout.units  result.qualifier  test.value
1  C[C@H](CCC(=O)NCCS(=O)(=O)O)[C@H]1CC[C@H]2[C@@H]3[C@@H](O)C[C@@H]4C[C@H](O)CC[C@]4(C)[C@H]3CC[C@]12C             µM                 =          10
2  C[C@H](CCC(=O)O)[C@H]1CC[C@H]2[C@@H]3[C@H](O)C[C@@H]4C[C@H](O)CC[C@]4(C)[C@H]3C[C@H](O)[C@]12C             µM                 >         150
